- experimental-system: T1, human TNFR2 (Novoprotein, Cat #C830) (human, UniProt P20333 23-257, limits assumed)
- T1 construct: construct not described; also called human TNFR2 protein
- T1 sequence (looked up): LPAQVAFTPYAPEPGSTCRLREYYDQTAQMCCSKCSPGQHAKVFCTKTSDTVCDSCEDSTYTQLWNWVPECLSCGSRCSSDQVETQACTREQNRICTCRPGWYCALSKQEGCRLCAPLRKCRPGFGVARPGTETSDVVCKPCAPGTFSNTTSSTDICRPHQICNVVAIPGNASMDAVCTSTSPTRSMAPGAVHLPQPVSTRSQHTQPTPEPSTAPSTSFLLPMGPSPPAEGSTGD
- assay-name: competition ELISA, competitor human TNFα-Biotin; AUC against 001-WT
measurement-kind: % Relative activity (WT antibody/test antibody)
Include the unit right after the number.

Give % Relative activity (WT antibody/test antibody) for the following binder: 001-Hu1 (antibody, V domains shown, Humanized form of #001; also called VH1 + VL1) VH: EVQLVESGGGLVQPGGSLRLSCAASGFAFSTYDLSWVRQAPGKGLEWVAYINNGGISTYYSDTVKGRFTISRDNAKNTLYLQMNSLRAEDTAVYYCVRGPFYGSANYFDYWGQGTLVTVSS VL: DIQMTQSPSSLSASVGDRVTITCRTSESIYSNLPWYQQKPGKAPKLLLYDATKLAEGVPSRFSGSGSGTDYTLTISSLQPEDFATYYCQHFWVTPWTFGQGTKVEIK
98%
